// reported z-score for each item listed
# protocol: MELAS cybrid and Rieske KO viability enhancers – cell-based, MELAS cybrids, Rieske KO mouse fibroblasts, CellTiter-Glo, primary screen (AID 1508586);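 further: test concentration not given here; z relative to plate mean and SD of compound and empty wells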
# condition.details: MELAS cybrid survival, low glucose, CellTiter-Glo 48 h; stronger effect = higher value

compound	z-score
CC(=O)NC(CCCN=C(N)N)C(=O)O (stereo not given)	-1.33
O=C(O)c1cc(I)ccc1NC(=O)C(Cc1ccccc1)NCc1ccccc1 (stereo not given)	-0.035
CCc1cc(C(=O)N2CCc3c(c(C(=O)N4CCN(c5ccccc5)CC4)nn3CC)C2)n(C)n1	-0.699
CC(C)(F)CC(NC(c1ccc(-c2ccc(S(C)(=O)=O)cc2)cc1)C(F)(F)F)C(=O)NC1(C#N)CC1 (stereo not given)	-0.379
N[C@@H]1CCCC[C@H]1N.O=C(O)C(=O)O.[Pt]	0.335

====

# protocol: MELAS cybrid and Rieske KO viability enhancers – cell-based, MELAS cybrids, Rieske KO mouse fibroblasts, CellTiter-Glo, primary screen (AID 1508586);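 further: test concentration not given here; z relative to plate mean and SD of compound and empty wells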
# condition.details: Rieske KO mouse fibroblast survival, low glucose, CellTiter-Glo 72 h
Group membership follows z-score per the scheme bucket A: < -0.3; bucket B: ≥ -0.3 and < 0.02; bucket C: ≥ 0.02

compound	qualitative.label
COc1ccc(CN2C[C@@H](CN3CCOCC3)C[C@@H](C(=O)NCC3CCCO3)C2)cc1OC (some centres not stated)	bucket C
CC(C)c1ccc(NC(=O)Cn2cnc3c2c(=O)n(C)c(=O)n3C)cc1	bucket A
O=C(Nc1ccccc1)c1ccn[nH]1	bucket C
CC(O)[C@@H]1C(=O)N2C(C(=O)O)=C(SC3CNC(CNS(N)(=O)=O)C3)C(C)[C@@H]12 (some centres not stated)	bucket B
CC(NCc1ccc(OCc2cccc(F)c2)cc1)C(N)=O (configuration not stated)	bucket C
CN1CC[C@H](c2c(O)cc(O)c3c(=O)cc(-c4ccccc4Cl)oc23)C(O)C1 (some centres not stated)	bucket A
OCC(O)C(O)CO (configuration not stated)	bucket B
COc1ccc(CN2C[C@@H](COc3cccc(C(F)(F)F)c3)C[C@@H](C(=O)NCC(C)C)C2)cc1OC	bucket B
COc1ccc(C(=O)/C(Br)=C\C(=O)O)cc1	bucket B
CC(C)(C)NCC(O)COc1ccccc1C1CCCC1 (configuration not stated)	bucket A
OCCn1cc(-c2ccc3c(c2)CCC3=NO)c(-c2ccncc2)n1	bucket C
COc1cc(OC)c(C=CS(=O)(=O)Cc2ccc(OC)c(NCC(=O)O)c2)c(OC)c1	bucket A
Cc1nsc(NC(=O)N(C)Cc2cn[nH]c2-c2ccc(F)cc2)n1	bucket B
COc1ccccc1-c1noc(Cc2ccc3c(c2)OCO3)n1	bucket C
Cc1cn(C2CC(O)C(CO)O2)c(=O)[nH]c1=O (configuration not stated)	bucket C
CN(C)c1ccc(/C=C/CN2CC(=O)N(CCCN3CCCC3=O)CC(O)C2)cc1 (configuration not stated)	bucket B
NC(=O)c1cnc(NC2CCCCC2N)nc1Nc1cccc(-n2nccn2)c1 (configuration not stated)	bucket A
COCCN1C(=O)N(C(C)C)C(=O)C12CCN(Cc1c(F)cccc1Cl)CC2	bucket A
CCOC(=O)c1[nH]c2cc(Cl)ccc2c1C(C(=O)NC(C)(C)C)N(C=O)Cc1ccc(Cl)cc1 (configuration not stated)	bucket A
COCCN1C(=O)N(C2Cc3ccccc3C2)C(=O)C12CCN(Cc1cnn(C)c1C)CC2	bucket B
Nc1ccn(C2OC(CO)C(O)C2(F)F)c(=O)n1 (configuration not stated)	bucket B
Cc1cc(NC(=O)c2cccc(NC(=O)C=CCN(C)C)c2)ccc1Nc1nccc(-c2cccnc2)n1	bucket C
